The reported numbers originate from ChEMBL document CHEMBL4765228.

# Target Desc: Serine/threonine-protein kinase Chk2 (Homo sapiens)
# Experiment Notes: Inhibition of human CHK2 assessed as residual activity at 0.1 uM relative to control
Assay Metric: Activity (%)
Answer in %, number only, no unit symbol.

COc1ccc2c(c1)c(/C=C1\C(=O)Nc3ccc(S(N)(=O)=O)cc31)cn2C : 35
CN(C)S(=O)(=O)c1ccc2c(c1)/C(=C/c1cn(C)c3ccc(O)cc13)C(=O)N2 : 94
COc1ccc2c(c1)c(/C=C1\C(=O)Nc3ccc(S(=O)(=O)N(C)C)cc31)cn2C : 100
CNS(=O)(=O)c1ccc2c(c1)/C(=C/c1cn(C)c3ccc(OC)cc13)C(=O)N2 : 93

The molecule identified as Cn1cc(/C=C2\C(=O)Nc3ccc(S(N)(=O)=O)cc32)c2ccccc21 registered its Activity at 9

The molecule identified as COc1ccc2[nH]cc(/C=C3\C(=O)Nc4ccc(S(N)(=O)=O)cc43)c2c1 registered its Activity at 59
